Provenance of the data: patent EP4745132A1

Target: NUAK1 (Homo sapiens)
Sequence (O60285 whole entry): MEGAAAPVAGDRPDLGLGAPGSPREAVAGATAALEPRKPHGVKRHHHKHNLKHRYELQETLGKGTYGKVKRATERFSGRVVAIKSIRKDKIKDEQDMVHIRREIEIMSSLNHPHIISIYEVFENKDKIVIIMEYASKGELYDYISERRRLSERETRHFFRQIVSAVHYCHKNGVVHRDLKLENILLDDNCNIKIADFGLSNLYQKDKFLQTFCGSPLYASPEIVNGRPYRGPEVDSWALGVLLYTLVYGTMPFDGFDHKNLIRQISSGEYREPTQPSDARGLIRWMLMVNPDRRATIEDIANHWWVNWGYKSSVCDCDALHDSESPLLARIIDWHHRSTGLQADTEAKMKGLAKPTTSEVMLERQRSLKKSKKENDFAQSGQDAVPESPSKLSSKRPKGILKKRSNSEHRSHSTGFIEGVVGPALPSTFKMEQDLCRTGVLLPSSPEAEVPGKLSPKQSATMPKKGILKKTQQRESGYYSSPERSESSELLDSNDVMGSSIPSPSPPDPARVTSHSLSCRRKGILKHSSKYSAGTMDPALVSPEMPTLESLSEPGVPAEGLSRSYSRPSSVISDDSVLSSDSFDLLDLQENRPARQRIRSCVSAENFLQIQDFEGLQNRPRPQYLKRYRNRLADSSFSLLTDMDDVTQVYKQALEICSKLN
Test: Enzyme activity inhibition test, kinase activity assay based on P81 filter paper binding hot-spot technique
Format: biochemical
Settings: final concentration of NUAK1 10 nM; 20 µM CHKtide peptide substrate; 33P-labeled ATP; 2 hours at room temperature; read-out: IC50 (nM) of Test Compounds against NUAK1
Observation type: IC50 (nM)

Worked examples follow.
- Compound: "CN1CCN(c2ccc(Nc3nccc(N4CCC(C)(NS(=O)(=O)C5CC5)CC4)n3)cc2)CC1 [TDM-181165]"
  IC50, nM: 39
- Compound: "CN1CCN(c2ccc(Nc3nccc(N4CCC(C)(NC(=O)[C@@H]5CC5(F)F)CC4)n3)cc2)CC1 [TDM-181164]"
  IC50, nM: 6
- Compound: "COc1cc(N2CCN(C)CC2)ccc1Nc1ncc(Cl)c(N2CCC(C)(NS(=O)(=O)C3CC3)CC2)n1 [TDM-181175]"
  IC50, nM: 20
- Compound: "CN1CCN(c2ccc(Nc3ncc(Cl)c(N4CCC(C)(NS(=O)(=O)C5CC5)CC4)n3)cc2)CC1 [TDM-181173]"
  IC50, nM: 1
- Compound: "CN1CCN(c2ccc(Nc3ncc(Cl)c(CN4CCC(C)(NS(=O)(=O)C5CC5)CC4)n3)cc2)CC1 [TDM-181183]"
  IC50, nM: 69

I: CN1CCN(c2ccc(Nc3ncc(Cl)c(N4CCC(C)(NC(=O)[C@@H]5CC5(F)F)CC4)n3)cc2)CC1 [TDM-181174]
II: CC1(NC(=O)[C@@H]2CC2(F)F)CCN(Cc2nc(Nc3cnn(C4CCNCC4)c3)ncc2Cl)CC1 [TDM-181186]
Which entry shows the lesser value of IC50 here, I or II ? Could you answer with the label of the item you picked? I
(I: 0.46 nM, II: 959 nM)
